- assay.remarks: Phase I pharmacokinetics, single PO dose
- Type: in vivo, human
- test.parameters: human, blood, po, 10 mg
experimental.readout: Cmax (ng/mL)
Give the quantity in ng/mL, number only.

# input Which Cmax is reported for this molecule? `Cc1ccc2c(c1)c1c(n2CCc2ccccc2)CCN(C)C1`
# output 0.0537

====

- assay.remarks: Median lethal dose after single administration
- Set-up: species or system mice
- test.parameters: male, CD1, mouse, in vivo, po
experimental.readout: LD50 at 2 weeks (mg/kg)
Give the quantity in mg/kg, number only.

# input Which LD50 at 2 weeks is reported for this molecule? `Cc1ccc2c(c1)c1c(n2CCc2ccccc2)CCN(C)C1`
# output 331

====

- target.under.test: hERG potassium channel (Homo sapiens, UniProt Q12809)
- Sequence (Q12809 whole entry): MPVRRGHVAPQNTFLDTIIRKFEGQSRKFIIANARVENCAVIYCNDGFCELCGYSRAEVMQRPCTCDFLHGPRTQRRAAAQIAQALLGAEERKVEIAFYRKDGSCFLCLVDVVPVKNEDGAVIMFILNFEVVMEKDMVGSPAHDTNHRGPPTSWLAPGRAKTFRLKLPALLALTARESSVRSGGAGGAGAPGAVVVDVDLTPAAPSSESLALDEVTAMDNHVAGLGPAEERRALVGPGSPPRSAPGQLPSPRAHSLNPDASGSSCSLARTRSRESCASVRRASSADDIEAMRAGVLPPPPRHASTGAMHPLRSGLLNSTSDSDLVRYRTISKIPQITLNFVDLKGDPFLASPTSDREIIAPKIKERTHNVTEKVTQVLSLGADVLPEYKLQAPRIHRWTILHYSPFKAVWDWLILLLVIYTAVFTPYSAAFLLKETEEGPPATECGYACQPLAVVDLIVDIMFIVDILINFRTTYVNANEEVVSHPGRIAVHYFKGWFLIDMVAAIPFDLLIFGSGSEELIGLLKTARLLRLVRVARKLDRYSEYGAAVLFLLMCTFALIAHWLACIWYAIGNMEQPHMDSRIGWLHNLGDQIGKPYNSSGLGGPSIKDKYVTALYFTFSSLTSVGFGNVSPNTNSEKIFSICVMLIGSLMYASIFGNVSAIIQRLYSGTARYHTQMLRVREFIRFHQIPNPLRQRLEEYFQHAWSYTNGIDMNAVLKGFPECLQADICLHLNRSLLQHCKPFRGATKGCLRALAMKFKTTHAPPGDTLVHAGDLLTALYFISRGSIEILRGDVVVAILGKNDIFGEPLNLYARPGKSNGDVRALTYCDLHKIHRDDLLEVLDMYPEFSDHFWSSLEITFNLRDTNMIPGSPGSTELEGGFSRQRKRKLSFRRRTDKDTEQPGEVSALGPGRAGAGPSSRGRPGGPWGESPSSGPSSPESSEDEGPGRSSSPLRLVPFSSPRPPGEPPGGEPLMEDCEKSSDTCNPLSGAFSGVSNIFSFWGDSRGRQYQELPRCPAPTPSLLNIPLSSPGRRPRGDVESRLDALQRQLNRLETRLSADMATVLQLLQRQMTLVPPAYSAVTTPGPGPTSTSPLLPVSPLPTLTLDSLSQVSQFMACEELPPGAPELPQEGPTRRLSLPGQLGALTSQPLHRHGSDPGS
- assay.remarks: hERG single cell patch clamp in HEK cells
- test.parameters: potassium currents, patch clamp
experimental.readout: pIC50
Here pIC50 is given on a logarithmic scale as minus log10 of the concentration in mol/L.

# input Record Cc1ccc2c(c1)c1c(n2CC(O)c2ccccc2)CCN(C)C1 (stereo not shown) [M1] : what is its pIC50 with hERG potassium channel (Homo sapiens, UniProt Q12809)?
# output 5.79

====

- assay.remarks: Pharmacokinetics in mice, IP
- Type: in vivo
- test.parameters: mouse, blood, 0.2 mg/kg, AUC0 - >t, IP 0.2 mg/kg
experimental.readout: AUC (ng·h/mL)
Give the quantity in ng·h/mL, number only.

# input Which AUC is reported for this compound? `Cc1ccc2c(c1)c1c(n2CCc2ccccc2)CCN(C)C1`
# output 5.65

====

- assay.remarks: Pharmacokinetics in dogs
- Assay type: in vivo, dogs (Beagle)
- test.parameters: Beagle, dog, blood, iv, 2 mg/kg
experimental.readout: AUC (ng·h/mL)
Give the quantity in ng·h/mL, number only.

# input Which AUC is reported for this compound? `Cc1ccc2c(c1)c1c(n2CCc2ccccc2)CCN(C)C1`
# output 498

====

- assay.remarks: Pharmacokinetics in Rhesus monkeys
- Assay type: in vivo
- test.parameters: rhesus monkey, in vivo, po, 10 mg/kg, T1/2, monkey 35189, PO 10 mg/kg
experimental.readout: half-life (h)
Give the quantity in h, number only.

# input Which half-life is reported for this molecule? Cc1ccc2c(c1)c1c(n2CCc2ccccc2)CCN(C)C1 [AVN-101]
# output 4.25

====

- assay.remarks: Pharmacokinetics in mice, IP
- Assay type: in vivo
- test.parameters: mouse, blood, 0.05 mg/kg, AUC0 - >∞, IP 0.05 mg/kg
experimental.readout: AUC (ng·h/mL)
Give the quantity in ng·h/mL, number only.

# input Which AUC is reported for this compound? `Cc1ccc2c(c1)c1c(n2CCc2ccccc2)CCN(C)C1`
# output 0.498

====

- target.under.test: hKvLQT1-hminK (IKs) (Homo sapiens, UniProt P51787)
- Sequence (P51787 whole entry): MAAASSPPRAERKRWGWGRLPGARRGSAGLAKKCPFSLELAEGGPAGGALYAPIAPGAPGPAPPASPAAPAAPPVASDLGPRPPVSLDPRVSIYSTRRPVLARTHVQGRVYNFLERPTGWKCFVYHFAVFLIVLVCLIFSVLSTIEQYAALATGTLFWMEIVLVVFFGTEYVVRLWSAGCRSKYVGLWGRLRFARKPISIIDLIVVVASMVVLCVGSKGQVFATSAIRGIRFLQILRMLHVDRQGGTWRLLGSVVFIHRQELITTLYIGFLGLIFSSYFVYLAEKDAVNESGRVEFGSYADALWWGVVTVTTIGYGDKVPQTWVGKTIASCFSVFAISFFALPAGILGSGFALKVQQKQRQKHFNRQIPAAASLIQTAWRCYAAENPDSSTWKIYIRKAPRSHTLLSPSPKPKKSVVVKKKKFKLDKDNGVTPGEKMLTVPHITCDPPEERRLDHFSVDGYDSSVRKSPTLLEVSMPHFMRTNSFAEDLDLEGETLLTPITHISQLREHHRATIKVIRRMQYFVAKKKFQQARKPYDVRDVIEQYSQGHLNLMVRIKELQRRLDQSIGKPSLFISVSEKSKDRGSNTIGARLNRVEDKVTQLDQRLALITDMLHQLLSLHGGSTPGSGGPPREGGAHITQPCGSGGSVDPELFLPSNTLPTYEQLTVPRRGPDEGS
- assay.remarks: Cardiac channel inhibition, IKs
experimental.readout: pIC50
Here pIC50 is given on a logarithmic scale as minus log10 of the concentration in mol/L.

# input Record `Cc1ccc2c(c1)c1c(n2CCc2ccccc2)CCN(C)C1` : what is its pIC50 with hKvLQT1-hminK (IKs) (Homo sapiens, UniProt P51787)?
# output 4.65

====

- target.under.test: imidazoline I2 receptor
- assay.remarks: Radioligand binding competition, imidazoline I2
experimental.readout: pKi
Here pKi is given on a logarithmic scale as minus log10 of the concentration in mol/L.

# input Record `Cc1ccc2c(c1)c1c(n2CCc2ccccc2)CCN(C)C1` : what is its pKi with imidazoline I2 receptor?
# output 6.75

Reference for the values: paper PMC4969713
